assay-procedure: CREB reporter modulators under forskolin, primary screen, cell-based, PC12, CRE-LacZ reporter, forskolin-stimulated (AID 1146);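 also: PC12 cells with 6xCRE LacZ reporter stimulated by forskolin 10 µM; beta-galactosidase reporter signal reflecting CREB driven transcription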
setup-conditions: luminescence, 4.5 h, higher = more signal, called active from +8 up or from −8 down
readout-label: z-score
One number for each entry.

Solved entries:
CCC(=O)[C@@]1(O)C(=O)N2C(=C3C(=O)OCC[C@@H]31)N(Cc1ccccc1)C(C)=C(C(=O)OC)[C@H]2c1ccccc1 ... -0.205
C=Cc1ccc([C@H]2N[C@H](C(=O)O)CC[C@@H]2C)cc1 ... 0.179
CCOC(=O)NN=C1C[C@@H](O)[C@@H](O)[C@@H]2[C@@H]3C(=O)N(Cc4ccc5c(c4)OCO5)C(=O)[C@@H]3CC[C@H]12 ... 0.619
COc1ccc(O[C@H]2C=C[C@@H](c3ccccc3)O[C@@H]2CON=C(C)CCN2CCc3nc(-c4ccccc4)c(-c4ccccc4)cc3C2)cc1 ... 0.703
CCOC(=O)CCN1C(=O)[C@H]2[C@H]3[C@H](O)[C@H](O)CC(=NOCC(C)C)[C@H]3CC[C@H]2C1=O ... 0.357

Report z-score for each item below.
1. CC(C)CON=C1C[C@@H](O)[C@@H](O)[C@@H]2[C@@H]3C(=O)N(C4CCCCC4)C(=O)[C@@H]3CC[C@H]12
2. CCOC(=O)NN=C1C[C@@H](O)[C@@H](O)[C@@H]2[C@@H]3C(=O)N(c4cccc(Oc5ccccc5)c4)C(=O)[C@@H]3CC[C@@H]12
3. O=C1C2=CC[C@H]3C(=O)N(c4cccc(Oc5ccccc5)c4)C(=O)[C@H]3[C@H]2[C@H](O)[C@@H]2O[C@H]12
4. O=c1n(Cc2cc3c(cc2Cl)OCO3)c(=O)n2n1CC[C@@H]1C(=NOCc3ccccc3)[C@H]3O[C@H]3[C@@H](O)[C@@H]12
5. O=C1[C@H]2[C@H]3[C@H](O)[C@H](O)CC(=NOCc4ccccc4)[C@@H]3CC[C@H]2C(=O)N1C[C@@H]1CCCO1

1. -0.061
2. -0.252
3. 19.7
4. 1.87
5. 0.105

Report z-score for each item below.
1. CCOC(=O)NN=C1C[C@@H](O)[C@@H](O)[C@@H]2[C@@H]3C(=O)N([C@@H](C)c4ccccc4)C(=O)[C@@H]3CC[C@@H]12
2. C#CCCCON=C1C[C@@H](O)[C@@H](O)[C@@H]2[C@@H]3C(=O)N(C(C)(C)C)C(=O)[C@@H]3CC[C@@H]12
3. COc1ccc(O[C@H]2C=C[C@@H](c3ccccc3)O[C@@H]2CON=C2[C@H]3CCn4c(=O)n(-c5ccccc5)c(=O)n4[C@H]3[C@H](O)[C@@H]3O[C@H]23)cc1
4. O=C1C[C@@H](O)[C@@H](O)[C@@H]2[C@@H]3C(=O)N(c4cccc(Oc5ccccc5)c4)C(=O)[C@@H]3CC[C@H]12
5. COc1cccc([C@H]2Oc3ccc(OC)cc3C(=NOC(C)CN3CCCCc4nc(C)c(C)cc43)[C@@H]2O)c1 (some centres undefined)
6. CC(C)=CCCC(C)=CCON=C1C[C@@H](O)[C@@H](O)[C@@H]2[C@@H]3C(=O)N(C(C)(C)C)C(=O)[C@@H]3CC[C@H]12
7. CC(C)C[C@H](NC(=O)CCC1CC(OC(=O)NCc2cccc3ccccc23)CC2(CCCC(COC(=O)NCc3ccccc3)O2)O1)C(=O)NCC(c1ccccc1)c1ccccc1 (some centres undefined)

[-0.14, 0.262, -0.016, 0.287, 0.323, 0.871, 0.728]

Report z-score for each item below.
1. CC(C)CON=C1C[C@@H](O)[C@@H](O)[C@@H]2[C@@H]3C(=O)N(C(C)(C)C)C(=O)[C@@H]3CC[C@H]12
2. COC(=O)CC=C[C@@H](C)[C@@H](C=NOC[C@@H](O)[C@H]1O[C@@H]2OC(C)(C)O[C@@H]2[C@H]1O)NS(=O)(=O)c1ccc(C)cc1
3. O=C(C=Cc1ccc2c(c1)OCO2)c1ccc(F)cc1
4. CCCCC#C[C@@H]1C=C[C@H](Oc2cc(OC)c(OC)c(OC)c2)[C@@H](COC(=O)OCC)O1
5. O=C1[C@H]2[C@H]3[C@H](O)[C@H](O)CC(=NOC[C@@H](O)COCc4ccco4)[C@H]3CC[C@H]2C(=O)N1C[C@@H]1CCCO1
6. CC(=O)OC[C@H]1O[C@H](C#Cc2ccccc2)C=C[C@@H]1OC(C)=O
7. COC(=O)[C@H]1O[C@@H](c2c(OC)c(OC)c(C)c(OC)c2OC)[C@H](C)[C@@H](O)[C@H]1C

[0.366, 0.285, 0.362, -0.684, 0.261, 3.76, 1.12]

Report z-score for each item below.
1. CCOC(=O)[C@H](Cc1ccccc1)NC(=O)CCC1CC(OC(=O)NCCc2ccc(F)cc2)CC2(CCCC(COC(=O)NCCOC)O2)O1 (some centres undefined)
2. CCc1cc2c(nc1CC)CCN(CCC(C)=NO[C@H](C)c1cn([C@H](CO)Cc3ccccc3)nn1)C2
3. CO[C@@H]1COC(=O)[C@@H](C)COC(=O)[C@@H](C)NC(=O)CC=C[C@@H]1C
4. CC[C@@H](c1ccccc1)n1c(=O)n2n(c1=O)[C@H]1[C@H](O)[C@@H]3O[C@@H]3C(=O)[C@H]1CC2
5. CCOC(=O)NN=C1C[C@@H](O)[C@@H](O)[C@@H]2[C@@H]3C(=O)N(c4cccc(Oc5ccccc5)c4)C(=O)[C@@H]3CC[C@H]12

[-0.728, 0.406, -0.694, 2.92, 0.583]
